- test_target: human C4b (UniProt P0C0L5)
- Sequence (P0C0L5 whole entry, looked up): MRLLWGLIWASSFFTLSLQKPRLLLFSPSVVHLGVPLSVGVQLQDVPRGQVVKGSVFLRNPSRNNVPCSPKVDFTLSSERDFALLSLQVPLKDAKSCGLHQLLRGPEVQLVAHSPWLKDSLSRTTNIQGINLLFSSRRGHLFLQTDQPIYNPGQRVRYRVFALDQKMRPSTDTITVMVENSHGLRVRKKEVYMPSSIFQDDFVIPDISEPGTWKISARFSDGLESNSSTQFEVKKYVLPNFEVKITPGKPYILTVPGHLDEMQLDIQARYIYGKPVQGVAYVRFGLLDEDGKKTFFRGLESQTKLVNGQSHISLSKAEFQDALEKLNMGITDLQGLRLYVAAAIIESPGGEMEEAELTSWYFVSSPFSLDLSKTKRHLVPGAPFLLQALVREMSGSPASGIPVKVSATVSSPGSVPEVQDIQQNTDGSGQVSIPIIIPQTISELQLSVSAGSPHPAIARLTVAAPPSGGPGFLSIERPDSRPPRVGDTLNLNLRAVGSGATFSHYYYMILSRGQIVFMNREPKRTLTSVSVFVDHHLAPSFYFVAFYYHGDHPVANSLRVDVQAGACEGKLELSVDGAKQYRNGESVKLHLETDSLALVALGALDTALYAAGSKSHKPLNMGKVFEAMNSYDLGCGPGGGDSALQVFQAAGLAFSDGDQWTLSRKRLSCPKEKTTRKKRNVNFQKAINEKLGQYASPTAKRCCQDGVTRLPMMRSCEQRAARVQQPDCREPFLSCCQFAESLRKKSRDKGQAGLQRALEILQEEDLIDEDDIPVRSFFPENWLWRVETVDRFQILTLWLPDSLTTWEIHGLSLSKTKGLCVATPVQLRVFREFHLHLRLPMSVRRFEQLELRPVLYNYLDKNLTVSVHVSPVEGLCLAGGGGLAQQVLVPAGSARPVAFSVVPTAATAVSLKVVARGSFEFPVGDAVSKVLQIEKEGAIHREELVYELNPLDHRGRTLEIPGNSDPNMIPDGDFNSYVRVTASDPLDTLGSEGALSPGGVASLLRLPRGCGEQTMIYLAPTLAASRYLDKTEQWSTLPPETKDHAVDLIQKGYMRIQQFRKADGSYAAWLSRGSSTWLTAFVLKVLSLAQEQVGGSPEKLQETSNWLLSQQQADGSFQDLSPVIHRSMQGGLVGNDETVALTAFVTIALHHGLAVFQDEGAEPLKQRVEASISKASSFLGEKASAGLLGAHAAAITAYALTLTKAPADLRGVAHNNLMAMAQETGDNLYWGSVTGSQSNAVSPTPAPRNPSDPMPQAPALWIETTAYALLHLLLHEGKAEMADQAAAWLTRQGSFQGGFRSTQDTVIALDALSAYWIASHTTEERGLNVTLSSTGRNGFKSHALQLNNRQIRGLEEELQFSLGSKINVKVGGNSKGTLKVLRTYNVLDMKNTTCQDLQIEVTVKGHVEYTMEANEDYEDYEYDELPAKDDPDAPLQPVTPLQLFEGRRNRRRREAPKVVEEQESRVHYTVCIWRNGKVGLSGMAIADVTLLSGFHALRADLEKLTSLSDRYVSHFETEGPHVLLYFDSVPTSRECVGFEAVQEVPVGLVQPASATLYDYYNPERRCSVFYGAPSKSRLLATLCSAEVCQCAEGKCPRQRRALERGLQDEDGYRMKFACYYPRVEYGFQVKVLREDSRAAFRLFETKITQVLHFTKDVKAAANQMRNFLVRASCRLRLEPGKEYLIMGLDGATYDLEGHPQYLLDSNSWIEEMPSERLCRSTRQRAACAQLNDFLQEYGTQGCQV
property_name: C4c ref fold (fold)
The response must be a number in fold with no trailing unit.

Exercise: Recorded C4c ref fold of Const. No. 24: HSA-GGSSGG-hCFI; R62L , please.
Solution: 0.59

Exercise: Requested field: C4c ref fold. Item: Const. No. 27: HSA-GGSSGG-hCFI; E401R
Solution: 2.93

Exercise: Recorded C4c ref fold of Const. No. 67: HSA-GGSSGG-hCFI-GGSSGG-hCR1; CCP1; CCP2; CCP3; CCP4 , please.
Solution: 3.2

Exercise: Dear colleague, I am looking for the recorded C4c ref fold of the following substance: Const. No. 30: HSA-GGSSGG-hCFI; N402G
Solution: 0.73

Exercise: Endpoint output: C4c ref fold of Const. No. 14: HSA-GGSSGG-hCFI; S499A . Value?
Solution: 0.45

Exercise: Given Const. No. 38: HSA-GGSSGG-hCFI; N52A , state its recorded C4c ref fold.
Solution: 2.93

Exercise: Report C4c ref fold for Const. No. 4: HSA-GGSSGG-hCFI; L307H please.
Solution: 3.55

Exercise: Looking for the measured C4c ref fold of Const. No. 51: HSA-GGSSGG-hCFI; E416R , can you help?
Solution: 1.17

Exercise: Can you look up the measured C4c ref fold of Const. No. 10: HSA-GGSSGG-hCFI; Δ(Y496) for me?
Solution: 0.02

Exercise: Item Const. No. 78: HSA-GGSSGG-hCFI; K51D; T59E; R61D has what recorded C4c ref fold?
Solution: -0.24

Exercise: Entry Const. No. 9: HSA-GGSSGG-hCFI; P433F : reported C4c ref fold = ?
Solution: 0.05

Exercise: # lookup: C4c ref fold of Const. No. 35: HSA-GGSSGG-hCFI; R371E
Solution: 2.02

Exercise: Field request: C4c ref fold | item: Const. No. 68: HSA-GGSSGG-hCFI-GGSSGG-hCR1; CCP1; CCP2; CCP3-GGSSGG-hCR1; CCP15; CCP16; CCP17
Solution: 3.75

Exercise: Data request, read-out C4c ref fold, for Const. No. 13: HSA-GGSSGG-hCFI; S499G
Solution: 0.72

Exercise: // C4c ref fold lookup, key: Const. No. 89: HSA-GGSSGG-hCFI; T377G; E457G; N531G-GGSSGG-hCR1; CCP15; CCP16; CCP17; hFH; CCP4-GGGGGGGGGGGG-hFH; CCP19; CCP20
Solution: 3.21

Exercise: Suppose we examine the substance Const. No. 44: HSA-GGSSGG-hCFI; Δ(275-CAGFASVAQE-284)(SEQ ID NO: 31) > CEEDRQQNIPKGLARSAQGEAEIETE (SEQ ID NO: 32) + GGSSGG (SEQ ID NO: 6) + CR1(ccp15-17) ; what C4c ref fold value has been reported?
Solution: 3.47

Exercise: Which C4c ref fold value is on record for Const. No. 32: HSA-GGSSGG-hCFI; N402R ?
Solution: 0.98

Exercise: Consider the substance Const. No. 64: HSA-GGSSGG-hCFI-GGSSGG-hCR1; CCP8; CCP9; CCP10 and give its measured C4c ref fold.
Solution: 4.11

Exercise: Suppose we examine the substance Const. No. 23: HSA-GGSSGG-hCFI; R62E ; what C4c ref fold value has been reported?
Solution: 0.1

Exercise: // query C4c ref fold value for entry Const. No. 21: HSA-GGSSGG-hCFI; K423R
Solution: 1.44

Exercise: Quick one: C4c ref fold for Const. No. 37: HSA-GGSSGG-hCFI; K51R; N52A; A55P; T59M; R61G; F64Y ?
Solution: 3.59

Exercise: What value of measured C4c ref fold is listed for Const. No. 58: HSA-GGSSGG-hCFI; D395A; E416A; D425A ?
Solution: 0.06

Exercise: # get_value(readout='C4c ref fold', item= Const. No. 2: HSA-GGSSGG-hCFI; F559H )
Solution: 0.58

Exercise: Report C4c ref fold for Const. No. 47: HSA-GGSSGG-hCFI; R484E please.
Solution: 0.93

Exercise: Param item = Const. No. 45: HSA-GGSSGG-hCFI; R484A ; retrieve measured C4c ref fold.
Solution: 1.3

Exercise: Entry under review: Const. No. 17: HSA-GGSSGG-hCFI; Y496L . Reported C4c ref fold?
Solution: 1.54

Exercise: Which C4c ref fold value is on record for Const. No. 80: HSA-GGSSGG-hCFI; Δ(1-KVTYTS-6)(SEQ ID NO: 35) > RSPSASDLP (SEQ ID NO: 36) ?
Solution: 3.07

Exercise: Fill blank: measured C4c ref fold of the substance Const. No. 73: HSA-GGSSGGSSGG-Chimp CFI is ____.
Solution: -0.03

Exercise: // lookup C4c ref fold for Const. No. 60: HSA-GGSSGG-hCFI; K368D
Solution: 1.39

Exercise: For the substance shown here, Const. No. 91: HSA-GGSSGG-hCFI; T377A; E457G; N531G , give the reported C4c ref fold.
Solution: 4.59

Exercise: # input substance: Const. No. 25: HSA-GGSSGG-hCFI; R62H ; wanted: its C4c ref fold
Solution: 0.74

Exercise: Find the recorded C4c ref fold belonging to Const. No. 49: HSA-GGSSGG-hCFI; Δ(V565) > VY and report it.
Solution: 1.47

Exercise: Give its C4c ref fold value. Item: Const. No. 7: HSA-GGSSGG-hCFI; P433A
Solution: 0.81

Exercise: Need C4c ref fold of Const. No. 74: HSA-GGSSGGSSGG-Bovine CFI , thanks.
Solution: 2.19

Exercise: Can you share its C4c ref fold? I mean this substance: Const. No. 1: HSA-GGSSGG-hCFI; F559W
Solution: 1.08
